Values from ChEMBL document CHEMBL1156784

# ASSAY_EXPLANATION: Oral bioavailability in human
# CONDITION_PARAMETERS: in vivo
OUTCOME_MEASURE: bioavailability (%)
Field: numeric (%). Do not append units.

{"MOLECULE": "CC(C)(O/N=C(\\C(=O)N[C@@H]1C(=O)N2C(C(=O)[O-])=C(C[n+]3ccccc3)CS[C@H]12)c1csc(N)n1)C(=O)O", "REPORTED_RESULT": 0}
{"MOLECULE": "CN(C)[C@@H]1C(O)=C(C(N)=O)C(=O)[C@@]2(O)C(O)=C3C(=O)c4c(O)cccc4[C@@](C)(O)[C@H]3C[C@@H]12", "REPORTED_RESULT": 78}

Query :: Which value of bioavailability has been reported for NCCCC[C@H](N[C@@H](CCc1ccccc1)C(=O)O)C(=O)N1CCC[C@H]1C(=O)O [LISINOPRIL ANHYDROUS] in the records?
Result :: 25

Query :: Which value of bioavailability has been reported for "C[N+](C)(C)C[C@H](O)CC(=O)[O-]" in the records?
Result :: 10

----------
A collection of molecules and their measured bioavailability
# ASSAY_EXPLANATION: Oral bioavailability in human
# CONDITION_PARAMETERS: in vivo
Field: numeric (%). Do not append units.

Field: example entries. Status: answers known.
{"STRUCTURE_SMILES_STRING": "Cc1cnc(NC(=O)C2=C(O)c3ccccc3S(=O)(=O)N2C)s1", "bioavailability (%)": 89}
{"STRUCTURE_SMILES_STRING": "COCc1c(C(C)C)nc(C(C)C)c(/C=C/[C@@H](O)C[C@@H](O)CC(=O)O)c1-c1ccc(F)cc1", "bioavailability (%)": 60}
{"STRUCTURE_SMILES_STRING": "N[C@@H]1[C@H]2CN(c3nc4c(cc3F)c(=O)c(C(=O)O)cn4-c3ccc(F)cc3F)C[C@@H]12", "bioavailability (%)": 88}
{"STRUCTURE_SMILES_STRING": "C[C@@H]1CN(c2c(F)c(N)c3c(=O)c(C(=O)O)cn(C4CC4)c3c2F)C[C@H](C)N1", "bioavailability (%)": 92}

Query :: Which value of bioavailability has been reported for "CN(C)[C@@H]1C(O)=C(C(N)=O)C(=O)[C@@]2(O)C(O)=C3C(=O)c4c(O)ccc(Cl)c4[C@@](C)(O)[C@H]3C[C@@H]12" in the records?
Result :: 60

----------
A collection of compounds and their measured Papp
# ASSAY_EXPLANATION: Permeability at pH 6.5 by PAMPA method
Field: numeric (×10⁻⁶ cm/s). Do not append units.

Field: example entries. Status: answers known.
{"COMPOUND": "Nc1ccc(S(=O)(=O)Nc2ncccn2)cc1", "Papp / ×10⁻⁶ cm/s": 1.2}
{"COMPOUND": "CN(C)[C@@H]1C(O)=C(C(N)=O)C(=O)[C@@]2(O)C(O)=C3C(=O)c4c(O)ccc(Cl)c4[C@@H](O)[C@H]3C[C@@H]12", "Papp / ×10⁻⁶ cm/s": 3.8}
{"COMPOUND": "C[N+](C)(C)C[C@H](O)CC(=O)[O-]", "Papp / ×10⁻⁶ cm/s": 1.3}
{"COMPOUND": "CN(C)[C@@H]1C(O)=C(C(N)=O)C(=O)[C@@]2(O)C(O)=C3C(=O)c4c(O)cccc4[C@@](C)(O)[C@H]3C[C@@H]12", "Papp / ×10⁻⁶ cm/s": 3.8}
{"COMPOUND": "N[C@@H]1[C@H]2CN(c3nc4c(cc3F)c(=O)c(C(=O)O)cn4-c3ccc(F)cc3F)C[C@@H]12", "Papp / ×10⁻⁶ cm/s": 57}

Query :: Which value of Papp has been reported for "CN(C)c1ccc(O)c2c1C[C@H]1C[C@H]3[C@H](N(C)C)C(O)=C(C(N)=O)C(=O)[C@@]3(O)C(O)=C1C2=O" in the records?
Result :: 50

Query :: Which value of Papp has been reported for "Nc1ccc(O)c(C(=O)O)c1" in the records?
Result :: 0.9

Query :: Which value of Papp has been reported for "CCOC(=O)[C@H](CCc1ccccc1)N[C@H]1CCc2ccccc2N(CC(=O)O)C1=O" in the records?
Result :: 17
